Below, each of the molecules is paired with its reported pIC50 value.
Tested on: SCC-25
Test: Cytotoxicity against human SCC-25 cells assessed as cell viability incubated for 96 hrs by MTT assay
Format: functional, cell-based
Conditions: SCC-25, 96 h
Kindly note that pIC50 refers to -log10 of the concentration in mol/L and answer with the value alone.

INSERT INTO measurements (molecular_string, target_desc, endpoint_value) VALUES
  ('COc1cc2c(c3[nH]c4ccccc4c(=O)c13)C=CC(C)(C)O2', 'SCC-25', 4.67),
  ('Cn1c2ccccc2c(=O)c2c(OCc3cccc(C(=O)NO)c3)cc3c(c21)C=CC(C)(C)O3', 'SCC-25', 4.64);

From here, focus on the item given below.
Identify measured pIC50 corresponding to COc1cc2c(c3c1c(=O)c1ccccc1n3CCCCCCC(=O)NO)C=CC(C)(C)O2
5.95

----------
Test system: MCF7
Assay: Cytotoxicity against human MCF-7 cells assessed as cell viability incubated for 96 hrs by MTT assay
Type: functional, cell-based
Conditions: MCF7, 96 h
OBSERVATION TYPE: IC50 (µM)
Expressed in µM, but write only the number.

INSERT INTO measurements (molecular_string, unit_annotation, endpoint_value) VALUES
  ('Cn1c2ccccc2c(=O)c2c(OCc3cccc(C(=O)NO)c3)cc3c(c21)C=CC(C)(C)O3', 'µM', 6.62),
  ('Cn1c2ccccc2c(=O)c2c(OCc3ccc(C(=O)NO)cc3)cc3c(c21)C=CC(C)(C)O3', 'µM', 4.71),
  ('Cn1c2ccccc2c(=O)c2c(OCCCCCCC(=O)NO)cc3c(c21)C=CC(C)(C)O3', 'µM', 5.7),
  ('Cn1c2ccccc2c(=O)c2c(OCC(=O)NO)cc3c(c21)C=CC(C)(C)O3', 'µM', 10.9),
  ('COc1cc2c(c3c1c(=O)c1ccccc1n3CCCCCCC(=O)NO)C=CC(C)(C)O2', 'µM', 6.12),
  ('COc1cc2c(c3[nH]c4ccccc4c(=O)c13)C=CC(C)(C)O2', 'µM', 191),
  ('COc1cc2c(c3c1c(=O)c1ccccc1n3Cc1cccc(C(=O)NO)c1)C=CC(C)(C)O2', 'µM', 80.1);

Identify measured IC50 corresponding to Cn1c2ccccc2c(=O)c2c(OCCCC(=O)NO)cc3c(c21)C=CC(C)(C)O3
2.8

----------
Below, each of the molecules is paired with its reported pIC50 value.
Test system: MCF7
Experiment: Cytotoxicity against human MCF-7 cells assessed as cell viability incubated for 96 hrs by MTT assay
Type: functional, cell-based
Details: MCF7, 96 h
Kindly note that pIC50 refers to -log10 of the concentration in mol/L and answer with the value alone.

Examples with their reported pIC50 follow.
INSERT INTO results (molecule, observation_type, endpoint_value) VALUES
  ('Cn1c2ccccc2c(=O)c2c(OCCCCC(=O)NO)cc3c(c21)C=CC(C)(C)O3', 'pIC50', 5.99),
  ('COc1cc([C@@H]2c3cc4c(cc3[C@@H](O[C@@H]3O[C@@H]5CO[C@@H](C)O[C@H]5[C@H](O)[C@H]3O)[C@H]3COC(=O)[C@H]23)OCO4)cc(OC)c1O [ETOPOSIDE]', 'pIC50', 4.25),
  ('COc1cc2c(c3c1c(=O)c1ccccc1n3CCCCCC(=O)NO)C=CC(C)(C)O2', 'pIC50', 4.39),
  ('Cn1c2ccccc2c(=O)c2c(O)cc3c(c21)C=CC(C)(C)O3', 'pIC50', 3.73),
  ('COc1cc2c(c3c1c(=O)c1ccccc1n3Cc1ccc(C(=O)NO)cc1)C=CC(C)(C)O2', 'pIC50', 4.71);

From here, focus on the item given below.
Identify measured pIC50 corresponding to Cn1c2ccccc2c(=O)c2c(OCCCCCC(=O)NO)cc3c(c21)C=CC(C)(C)O3
5.08

----------
Experiment: Cytotoxicity against human Oral epithelial cell assessed as cell viability incubated for 96 hrs by MTT assay
Settings: human, oral epithelial cells
OBSERVATION TYPE: IC50 at 96 h (µM)
Expressed in µM, but write only the number.

Examples with their reported IC50 at 96 h follow.
INSERT INTO assay_data (molecular_string, observation_type, endpoint_value) VALUES
  ('COc1cc2c(c3c1c(=O)c1ccccc1n3CCCCCCC(=O)NO)C=CC(C)(C)O2', 'IC50 at 96 h', 60.2),
  ('Cn1c2ccccc2c(=O)c2c(OCCCC(=O)NO)cc3c(c21)C=CC(C)(C)O3', 'IC50 at 96 h', 27),
  ('COc1cc2c(c3c1c(=O)c1ccccc1n3Cc1ccc(C(=O)NO)cc1)C=CC(C)(C)O2', 'IC50 at 96 h', 82.5);

From here, focus on the item given below.
Identify measured IC50 at 96 h corresponding to Cn1c2ccccc2c(=O)c2c(OCCCCCC(=O)NO)cc3c(c21)C=CC(C)(C)O3
24.5

----------
System: SCC-25
Assay: Cytotoxicity against human SCC-25 cells assessed as cell viability incubated for 96 hrs by MTT assay
Type: functional, cell-based
Details: SCC-25, 96 h
Below, each of the compounds is paired with its reported log10(IC50) value.
Record value = log10 of IC50 given in µM.

INSERT INTO assay_data (compound, endpoint_value) VALUES
  ('Cn1c2ccccc2c(=O)c2c(OCCCCCC(=O)NO)cc3c(c21)C=CC(C)(C)O3', 0.99);

Identify measured log10(IC50) corresponding to COc1cc2c(c3c1c(=O)c1ccccc1n3CCCCCC(=O)NO)C=CC(C)(C)O2
1.17

Identify measured log10(IC50) corresponding to Cn1c2ccccc2c(=O)c2c(OCCCC(=O)NO)cc3c(c21)C=CC(C)(C)O3
0.34

Identify measured log10(IC50) corresponding to COc1cc([C@@H]2c3cc4c(cc3[C@@H](O[C@@H]3O[C@@H]5CO[C@@H](C)O[C@H]5[C@H](O)[C@H]3O)[C@H]3COC(=O)[C@H]23)OCO4)cc(OC)c1O [ETOPOSIDE]
0.53

Identify measured log10(IC50) corresponding to COc1cc2c(c3c1c(=O)c1ccccc1n3CC(=O)NO)C=CC(C)(C)O2
1.62

Identify measured log10(IC50) corresponding to COc1cc2c(c3c1c(=O)c1ccccc1n3Cc1ccc(C(=O)NO)cc1)C=CC(C)(C)O2
0.89

Identify measured log10(IC50) corresponding to Cn1c2ccccc2c(=O)c2c(OCCCCC(=O)NO)cc3c(c21)C=CC(C)(C)O3
-0.46

Identify measured log10(IC50) corresponding to COc1cc2c(c3c1c(=O)c1ccccc1n3Cc1cccc(C(=O)NO)c1)C=CC(C)(C)O2
1.59
